# test details: ATG_PBREM_CIS: Attagene CIS-FACTORIAL HepG2 Assay for human Phenobarbital-responsive Enhancer Module (PBREM) (AID 2282955)
# particulars: HepG2 PBREM cis-reporter, Attagene multiplexed transcription; actives raise or lower the signal
# Protocol: ATG_CIS is a cell-based, multiplexed-readout assay that uses HepG2, a human liver cell line, with measurements taken at 24 hours after chemical dosing in a 24-well plate.ATG_PBREM_CIS is one of 52 assay component(s) measured or calculated from the ATG_CIS assay. […] This assay endpoint, ATG_PBREM_CIS, was analyzed with bidirectional fitting relative to DMSO as the negative control and baseline of activity. […]
Active and inactive are the calls of the source. The calls were made as follows: active = hit-call score of the fitted dose curve at least 0.9, where 1 is the maximum; inactive = score below 0.9.
parameter measured: AC50

The following compounds have reported results that may help.
>>> result("O=S(=O)(O)c1ccc(N=Nc2c(O)ccc3ccccc23)cc1")
"inactive"
>>> result("C=C[C@@]1(C)CC(=O)[C@]2(O)[C@@]3(C)[C@@H](O)CCC(C)(C)[C@@H]3[C@H](O)[C@H](OC(C)=O)[C@@]2(C)O1")
"803 nM (active)"
>>> result("O=c1c(O)c(-c2ccc(O)cc2O)oc2cc(O)cc(O)c12")
"inactive"
>>> result("CC(C)COC(=O)CC(C(=O)OCC(C)C)S(=O)(=O)O (stereo not given)")
"inactive"

Consider the record given below.
Q: Specify reported AC50 for the compound shown: O=C1CCCCCCCCCCCN1
Ans: inactive

Data credit: PubChem BioAssay (EPA / NIEHS)
